- assay overview: Plasma levels of curcumin, metabolites and piperine by HPLC-MS/MS in participants using their own curcumin formulations
- Format: in vivo, human
- recorded conditions: human, in vivo, Plasma level in individual participants
Exercise: for every item that follows, state its recorded concentration at 1.5 h.

Take a look at these entries with their results.
compound: O=C(/C=C/c1ccc(O)cc1)CC(=O)/C=C/c1ccc(O)cc1 [Bisdemethoxycurcumin, bisdemethoxycurcumin]
concentration at 1.5 h: < 0.62 ng/mL
//
compound: COc1cc(CCC(=O)CC(=O)CCc2ccc(O)c(OC)c2)ccc1O [Tetrahydrocurcumin, tetrahydrocurcumin]
concentration at 1.5 h: 16.4 ng/mL

Attention now turns to another entry.
Q. Identify concentration at 1.5 h associated with the compound COc1cc(/C=C/C(O)=C/C(=O)/C=C/c2ccc(O)cc2)ccc1O [Demethoxycurcumin, demethoxycurcumin]
A. < 0.68 ng/mL

* * *

- assay overview: Plasma levels of curcumin, metabolites and piperine by HPLC-MS/MS in participants using their own curcumin formulations
- Assay type: in vivo, human
- recorded conditions: human, in vivo, Mean concentration
reported metric: concentration at 0 h (ng/mL)
One number for each entry, in ng/mL.

Q. Identify concentration at 0 h associated with the molecule `O=C(/C=C/c1ccc(O)cc1)CC(=O)/C=C/c1ccc(O)cc1`
A. 2.1

* * *

- assay overview: Plasma levels of curcumin, metabolites and piperine by HPLC-MS/MS in participants using their own curcumin formulations
- Type: in vivo, human
- recorded conditions: human, in vivo, Mean concentration
reported metric: concentration at 1.5 h (ng/mL)
Give bare numbers, in ng/mL.

Q. Identify concentration at 1.5 h associated with the molecule COc1cc(CCC(=O)CC(=O)CCc2ccc(O)c(OC)c2)ccc1O [Tetrahydrocurcumin, tetrahydrocurcumin]
A. 18.6
